Listing: Kb of selected compounds
- STUDY TARGET: μ opioid receptor (Homo sapiens)
- Construct: expressed in transfected cells
- Sequence (P35372 whole entry): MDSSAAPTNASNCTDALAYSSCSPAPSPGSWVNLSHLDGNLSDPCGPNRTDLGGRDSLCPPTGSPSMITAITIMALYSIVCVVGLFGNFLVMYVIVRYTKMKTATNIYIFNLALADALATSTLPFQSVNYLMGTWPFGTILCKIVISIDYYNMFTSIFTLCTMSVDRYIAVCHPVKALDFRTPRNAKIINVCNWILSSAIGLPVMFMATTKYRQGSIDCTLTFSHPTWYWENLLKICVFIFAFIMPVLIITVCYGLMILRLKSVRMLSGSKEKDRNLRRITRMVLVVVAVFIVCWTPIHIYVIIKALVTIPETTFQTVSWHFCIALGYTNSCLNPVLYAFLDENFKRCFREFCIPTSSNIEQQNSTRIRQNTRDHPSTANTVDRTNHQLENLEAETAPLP
- EXPERIMENT DESCRIPTION: Inhibition of DAMGO-stimulated [35S]GTPγS binding
- Type: biochemical
ASSAY READOUT: Kb

compound_structure_string=CC1CCN(C[C@H](C(C)C)N(C)C[C@H]2Cc3ccc(O)cc3CN2)CC1 assay_readout=Kb measured_value="647 nM"
compound_structure_string=O=C(NCCc1ccccc1)[C@H]1Cc2ccc(O)cc2CN1 assay_readout=Kb measured_value="277 nM"
compound_structure_string=CC(C)[C@@H](CO)NC(=O)[C@H]1Cc2ccc(O)cc2CN1 assay_readout=Kb measured_value="> 3000 nM"
compound_structure_string=CC1CCN(C[C@H](C(C)C)N(C)C(=O)[C@H]2Cc3ccc(O)cc3CN2)CC1 assay_readout=Kb measured_value="406 nM"

====

- STUDY TARGET: κ opioid receptor (Homo sapiens)
- Construct: expressed in transfected cells
- EXPERIMENT DESCRIPTION: Inhibition of U69,593-stimulated [35S]GTPγS binding
- Format: biochemical
- RECORDED CONDITIONS: ratio of Ke values μ/κ, fold
ASSAY READOUT: μ/κ (selectivity for κ relative to μ)

compound=CCN(CC)C[C@@H](NC(=O)[C@H]1Cc2ccc(O)cc2CN1)C(C)C measured_value=16.5
compound=CC1CCN(C[C@H](C(C)C)N(C)C[C@H]2Cc3ccc(O)cc3CN2)CC1 measured_value=35
compound=COC1CCN(C[C@@H](NC(=O)[C@H]2Cc3ccc(O)cc3CN2)C(C)C)CC1 measured_value=30
compound=CC(C)[C@@H](CN1CCN(C)CC1)NC(=O)[C@H]1Cc2ccc(O)cc2CN1 measured_value=9
compound=CC(C)[C@@H](CN1CCC(F)(F)CC1)NC(=O)[C@H]1Cc2ccc(O)cc2CN1 measured_value=51
compound=CC(C)[C@@H](CN1CCC(C(F)(F)F)CC1)NC(=O)[C@H]1Cc2ccc(O)cc2CN1 measured_value=14
compound="CC(C)[C@@H](CN1CCCCC1C)NC(=O)[C@H]1Cc2ccc(O)cc2CN1 (some centres unmarked)" measured_value=3
compound=CC(C)[C@@H](CN1CCC(N(C)C)CC1)NC(=O)[C@H]1Cc2ccc(O)cc2CN1 measured_value=39

====

- STUDY TARGET: δ opioid receptor (Homo sapiens)
- Construct: expressed in transfected cells
- EXPERIMENT DESCRIPTION: Inhibition of DPDPE-stimulated [35S]GTPγS binding
- Format: biochemical
- RECORDED CONDITIONS: cloned human δ receptor, agonist DPDPE, [35S]GTPγS binding; read-out: δ, DPDPE Ke
ASSAY READOUT: Kb

compound_structure_string=CC(C)[C@@H](CC1CCCC1)NC(=O)[C@H]1Cc2ccc(O)cc2CN1 assay_readout=Kb measured_value="1570 nM"
compound_structure_string=O=C(NCCc1ccccc1)[C@H]1Cc2ccc(O)cc2CN1 assay_readout=Kb measured_value="> 3000 nM"
compound_structure_string=CC1CCN(C[C@H](C(C)C)N(C)C[C@H]2Cc3ccc(O)cc3CN2)CC1 assay_readout=Kb measured_value="> 3000 nM"

====

# Kb annotations
- STUDY TARGET: δ opioid receptor (Homo sapiens, UniProt P41143)
- Construct: expressed in transfected cells
- Sequence (P41143 whole entry): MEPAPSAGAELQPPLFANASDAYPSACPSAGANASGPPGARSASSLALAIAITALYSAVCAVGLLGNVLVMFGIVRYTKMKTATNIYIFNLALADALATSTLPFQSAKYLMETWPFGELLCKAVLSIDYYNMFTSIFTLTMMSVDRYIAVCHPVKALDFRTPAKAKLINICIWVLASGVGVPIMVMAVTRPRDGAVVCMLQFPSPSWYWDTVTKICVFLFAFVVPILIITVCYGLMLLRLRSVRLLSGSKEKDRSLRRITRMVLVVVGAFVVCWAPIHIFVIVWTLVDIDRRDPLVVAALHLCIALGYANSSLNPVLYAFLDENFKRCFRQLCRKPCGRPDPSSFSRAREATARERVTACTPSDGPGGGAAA
- EXPERIMENT DESCRIPTION: Inhibition of DPDPE-stimulated [35S]GTPγS binding
- Format: biochemical
- RECORDED CONDITIONS: cloned human δ receptor, agonist DPDPE, [35S]GTPγS binding; read-out: δ, DPDPE Ke
ASSAY READOUT: Kb

compound="CC(C)[C@@H](CN1CCC(C)(C)CC1)NC(=O)[C@H]1Cc2ccc(O)cc2CN1 [Compound 9]" assay_readout=Kb measured_value="847 nM"
compound="CC1CCN(C[C@H](C(C)C)N(C)C(=O)[C@H]2Cc3ccc(O)cc3CN2)CC1 [Compound 30]" assay_readout=Kb measured_value="> 3000 nM"
compound="CCN(CC)C[C@@H](NC(=O)[C@H]1Cc2ccc(O)cc2CN1)C(C)C [Compound 11]" assay_readout=Kb measured_value=">3000 nM"
compound="CCC1CCN(C[C@@H](NC(=O)[C@H]2Cc3ccc(O)cc3CN2)C(C)C)CC1 [Compound 24]" assay_readout=Kb measured_value="2490 nM"

====

- STUDY TARGET: μ opioid receptor (Homo sapiens)
- Construct: expressed in transfected cells
- EXPERIMENT DESCRIPTION: Inhibition of DAMGO-stimulated [35S]GTPγS binding
- Assay type: biochemical
- RECORDED CONDITIONS: cloned human μ receptor, agonist DAMGO, [35S]GTPγS binding; read-out: μ, DAMGO Ke
For each record, check the reported Kb: if it is below 0.2 µM write YES, else write NO.

compound=CC(C)[C@@H](CN1CCC(C(F)F)CC1)NC(=O)[C@H]1Cc2ccc(O)cc2CN1 study_target="μ opioid receptor (Homo sapiens)" answer_label=YES
compound="CC(C)[C@@H](CN1CCCCC1C)NC(=O)[C@H]1Cc2ccc(O)cc2CN1 (some centres unmarked)" study_target="μ opioid receptor (Homo sapiens)" answer_label=YES
compound=CCC1CCN(C[C@@H](NC(=O)[C@H]2Cc3ccc(O)cc3CN2)C(C)C)CC1 study_target="μ opioid receptor (Homo sapiens)" answer_label=YES
compound=CC(C)[C@@H](CN1CCC(C(F)(F)F)CC1)NC(=O)[C@H]1Cc2ccc(O)cc2CN1 study_target="μ opioid receptor (Homo sapiens)" answer_label=YES
compound=CC(C)[C@@H](CN1CCC(F)(F)CC1)NC(=O)[C@H]1Cc2ccc(O)cc2CN1 study_target="μ opioid receptor (Homo sapiens)" answer_label=NO
compound=CC(C)[C@@H](CN1CCC(C)(C)CC1)NC(=O)[C@H]1Cc2ccc(O)cc2CN1 study_target="μ opioid receptor (Homo sapiens)" answer_label=YES
compound=CC(C)[C@@H](CN1CCN(C)CC1)NC(=O)[C@H]1Cc2ccc(O)cc2CN1 study_target="μ opioid receptor (Homo sapiens)" answer_label=NO
compound="CC1CCC(C[C@@H](NC(=O)[C@H]2Cc3ccc(O)cc3CN2)C(C)C)CC1 (some centres unmarked)" study_target="μ opioid receptor (Homo sapiens)" answer_label=NO
compound=CC(C)[C@@H](CC1CCCC1)NC(=O)[C@H]1Cc2ccc(O)cc2CN1 study_target="μ opioid receptor (Homo sapiens)" answer_label=NO
compound=CC(C)[C@@H](CN1CCC(N(C)C)CC1)NC(=O)[C@H]1Cc2ccc(O)cc2CN1 study_target="μ opioid receptor (Homo sapiens)" answer_label=NO

====

- STUDY TARGET: κ opioid receptor (Homo sapiens, UniProt P41145)
- Construct: expressed in transfected cells
- Sequence (P41145 whole entry): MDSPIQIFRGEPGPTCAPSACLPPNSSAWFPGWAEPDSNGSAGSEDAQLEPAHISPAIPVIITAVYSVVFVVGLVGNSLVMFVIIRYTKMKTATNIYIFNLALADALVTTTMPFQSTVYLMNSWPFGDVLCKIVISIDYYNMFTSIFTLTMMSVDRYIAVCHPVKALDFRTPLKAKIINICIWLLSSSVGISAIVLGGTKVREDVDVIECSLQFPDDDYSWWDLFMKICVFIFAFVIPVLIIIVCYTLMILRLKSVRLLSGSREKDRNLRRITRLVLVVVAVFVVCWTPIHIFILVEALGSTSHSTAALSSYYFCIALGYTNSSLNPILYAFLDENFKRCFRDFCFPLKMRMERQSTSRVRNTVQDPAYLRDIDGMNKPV
- EXPERIMENT DESCRIPTION: Inhibition of U69,593-stimulated [35S]GTPγS binding
- Type: biochemical
- RECORDED CONDITIONS: ratio of Ke values δ/κ, fold
ASSAY READOUT: δ/κ (selectivity for κ relative to δ)

compound=CCN(CC)C[C@@H](NC(=O)[C@H]1Cc2ccc(O)cc2CN1)C(C)C limit_qualifier=> measured_value=72
compound=CC(C)[C@@H](CN1CCN(C)CC1)NC(=O)[C@H]1Cc2ccc(O)cc2CN1 limit_qualifier=> measured_value=333
compound=CC1CCN(C[C@H](C(C)C)N(C)C[C@H]2Cc3ccc(O)cc3CN2)CC1 limit_qualifier=> measured_value=163
compound=CC(C)[C@@H](CN1CCC(C)(C)CC1)NC(=O)[C@H]1Cc2ccc(O)cc2CN1 limit_qualifier== measured_value=405
compound="CC(C)[C@@H](CN1CCCCC1C)NC(=O)[C@H]1Cc2ccc(O)cc2CN1 (some centres unmarked)" limit_qualifier== measured_value=199
compound=CC1CCN(C[C@H](C(C)C)N(C)C(=O)[C@H]2Cc3ccc(O)cc3CN2)CC1 limit_qualifier== measured_value=34
compound=CC(C)[C@@H](CN1CCC(N(C)C)CC1)NC(=O)[C@H]1Cc2ccc(O)cc2CN1 limit_qualifier=> measured_value=371
compound=CCC1CCN(C[C@@H](NC(=O)[C@H]2Cc3ccc(O)cc3CN2)C(C)C)CC1 limit_qualifier== measured_value=1004

====

- STUDY TARGET: κ opioid receptor (Homo sapiens)
- Construct: expressed in transfected cells
- EXPERIMENT DESCRIPTION: Inhibition of U69,593-stimulated [35S]GTPγS binding
- Type: biochemical
- RECORDED CONDITIONS: ratio of Ke values δ/κ, fold
ASSAY READOUT: δ/κ (selectivity for κ relative to δ)

compound_structure_string=COC1CCN(C[C@@H](NC(=O)[C@H]2Cc3ccc(O)cc3CN2)C(C)C)CC1 study_target="κ opioid receptor (Homo sapiens)" measured_value=>459
compound_structure_string=CC(C)[C@@H](CN1CCC(F)(F)CC1)NC(=O)[C@H]1Cc2ccc(O)cc2CN1 study_target="κ opioid receptor (Homo sapiens)" measured_value=>254
compound_structure_string=CC(C)[C@@H](CN1CCC(C(F)(F)F)CC1)NC(=O)[C@H]1Cc2ccc(O)cc2CN1 study_target="κ opioid receptor (Homo sapiens)" measured_value=>640
compound_structure_string=CC(C)[C@@H](CO)NC(=O)[C@H]1Cc2ccc(O)cc2CN1 study_target="κ opioid receptor (Homo sapiens)" measured_value=>76
